Hello, the source for this data is the supplement of paper PMC8728848, in case you need it.

target_under_test: GlcNAc(b1-4)Gal(b1-4)GlcNAc
procedure_summary: glycan array binding signal (z-score within array); higher = stronger binding
test_settings: glycan notation: IUPAC condensed, linker removed
Many of the other results were omitted from the sample, so the strongest signals are more common in it than they were.
property_label: glycan array binding signal (z-score)
Form field (numeric): enter value without unit.

1. CSA (Cytisus scoparius), P29257 (protein) SEELSFSFTKFKTDQKNLILQRDALITPTGKLQLTTVENGKPAAYSLGRALYSTPIHIWDKSTGDEASFATFFSFVISDAPNPSTAATDGLAFFLAPADTQPQSAGGYLGLFEKDSSYNSSNQIVAVEFDTYYNSAWDPQTNPHIGIDVNTIKSKKVSSWGFKNGNVATVLITYQPSSKSLVASLVYPSGQTSDKTSYIISANVDLKATVPEWVRIGFSATTGQTDNYIETHDILSWSFKSKLPATKN :: -0.213

Name the recorded glycan array binding signal (z-score) for DCL-1 (Homo sapiens), Q8IX05 (protein) MLRAALPALLLPLLGLAAAAVADCPSSTWIQFQDSCYIFLQEAIKVESIEDVRNQCTDHGADMISIHNEEENAFILDTLKKQWKGPDDILLGMFYDTDDASFKWFDNSNMTFDKWTDQDDDEDLVDTCAFLHIKTGEWKKGNCEVSSVEGTLCKTAIPYKRKYLSDNHILISALVIASTVILTVLGAIIWFLYKKHSDSRFTTVFSTAPQSPYNEDCVLVVGEENEYPVQFD .
-0.427
